target-under-test: 5-HT2A (Homo sapiens)
Sequence (P28223 whole entry): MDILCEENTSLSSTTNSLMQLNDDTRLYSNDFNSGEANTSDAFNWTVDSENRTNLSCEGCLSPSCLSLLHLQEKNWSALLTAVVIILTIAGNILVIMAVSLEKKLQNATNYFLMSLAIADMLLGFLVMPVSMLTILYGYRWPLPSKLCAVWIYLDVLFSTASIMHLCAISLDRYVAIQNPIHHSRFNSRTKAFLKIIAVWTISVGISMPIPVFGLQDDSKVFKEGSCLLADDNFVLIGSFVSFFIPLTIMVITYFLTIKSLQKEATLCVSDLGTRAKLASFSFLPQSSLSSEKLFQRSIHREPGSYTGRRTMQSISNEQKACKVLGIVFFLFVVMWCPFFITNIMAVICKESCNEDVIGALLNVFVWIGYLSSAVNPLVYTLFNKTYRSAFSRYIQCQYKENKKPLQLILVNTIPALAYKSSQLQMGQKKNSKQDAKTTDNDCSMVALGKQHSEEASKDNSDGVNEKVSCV
assay: Calcium flux (FLIPR) assay, human 5-HT2A stably expressed in HEK-293 (Flp-In-293) cells
cond: read-out: EC50, nM 5-HT2A; human 5-HT2A in HEK-293 cells, FLIPR; NA = no activity at 10 μM
measured-metric: EC50 (nM)
// note: answer is a bare numeric in nM

Record excerpt, results attached:
COc1ccc(Cl)c(Cl)c1C1CC1CN (single isomer, unassigned; (-)) [(−)-Example 36]
38
COc1ccc(F)c(Cl)c1C1CC1CN (single isomer, unassigned; (-)) [(−)-Example 50]
119
COc1cc(F)c(F)cc1C1CC1CN (single isomer, unassigned; (+)) [(+)-Example 40]
81

Query :: Need EC50, item COc1cc(Cl)c(Cl)cc1C1CC1CN (single isomer, unassigned; (-)) [(−)-Example 33]
Result :: 84

Query :: Need EC50, item COc1ccc(Cl)c(F)c1C1CC1CN (single isomer, unassigned; (-)) [(−)-Example 29]
Result :: 68

Query :: Need EC50, item COc1cc(Cl)c(Cl)cc1C1CC1CN (single isomer, unassigned; (+)) [(+)-Example 33]
Result :: 21

Query :: Need EC50, item COc1ccc(F)c(Cl)c1C1CC1CN (single isomer, unassigned; (+)) [(+)-Example 50]
Result :: 769

Query :: Need EC50, item C=CCOc1ccc(Cl)c(Cl)c1C1CC1CN (single isomer, unassigned; (-)) [(−)-Example 39]
Result :: 426

Query :: Need EC50, item COc1ccc(Cl)c(Cl)c1C1CC1CN (single isomer, unassigned; (+)) [(+)-Example 36]
Result :: 203

Query :: Need EC50, item COc1ccc(F)c(F)c1C1CC1CN (single isomer, unassigned; (-)) [(−)-Example 45]
Result :: 461
